test: in vitro; conditions: human, hela cells, % viability
RESULT TYPE: viability at 28.5 h, 10 µM (%)

MOLECULE: COc1ccc(C(=O)Nc2nnc(-c3ccccc3OC)o2)cc1OC
REPORTED MEASUREMENT: 86.3

MOLECULE: CC(C)c1cc(C(=O)N2CCOCC2)c(NC(=O)c2cc(-c3cccnc3)nc3ccc(Br)cc23)s1
REPORTED MEASUREMENT: 93.7

MOLECULE: O=C(O)c1cc(S(=O)(=O)NCc2ccco2)ccc1Cl
REPORTED MEASUREMENT: 85.4

MOLECULE: CN1CCC(COC(=O)Nc2ccc3cc[nH]c3c2)CC1
REPORTED MEASUREMENT: 98.7

MOLECULE: Oc1cc(C(F)(F)F)nc2[nH]nc(-c3cccs3)c12
REPORTED MEASUREMENT: 106

MOLECULE: O=C(O)c1ccc(Cl)c2c1C1C=CCC1C(c1ccc(S(=O)(=O)N3CCOCC3)cc1)N2 (centres unmarked)
REPORTED MEASUREMENT: 108

MOLECULE: CC(CCc1ccccc1)NC(=O)CCC(=O)O (centres unmarked)
REPORTED MEASUREMENT: 86.6

MOLECULE: COc1ccc2c(c1)c(C)c(C(=O)NC(C)Cc1ccccn1)n2C (centres unmarked)
REPORTED MEASUREMENT: 98.6

MOLECULE: CC(=O)N(C)c1nc(-c2ccccc2)ccc1C(=O)Nc1ccc2c(c1)OCO2
REPORTED MEASUREMENT: 96.8

MOLECULE: NNC(=O)/C(=C\c1cccc([N+](=O)[O-])c1)NC(=O)c1ccc(Br)o1
REPORTED MEASUREMENT: 107

MOLECULE: CCc1nc2ccc(C(=O)N(C)CCN(C)C)cn2c1N(CC)C(=O)NCCc1ccccc1
REPORTED MEASUREMENT: 96.4

MOLECULE: O=C(O)CSc1nnc2n(-c3ccccc3)c3ccccc3n12
REPORTED MEASUREMENT: 106

MOLECULE: COc1ccc2c(c1)C1(CC(=O)N(C)C1=O)C(=O)N2CCCC(=O)O (centres unmarked)
REPORTED MEASUREMENT: 77.3

MOLECULE: CS(=O)(=O)c1ccc(Cn2ccnc(OC3CCN(C(=O)c4ccc(C#N)cc4)CC3)c2=O)cc1
REPORTED MEASUREMENT: 92.4

---

test: in vitro; conditions: human, hela cells, % viability
Quick reference for viability at 28.5 h, 10 µM among some molecules

MOLECULE: Cn1c(SCc2ccc([N+](=O)[O-])cc2)nnc1C(O)c1ccccc1 (centres unmarked) [CBK269735]
viability at 28.5 h, 10 µM (%): 88.6
//
MOLECULE: O=C(c1ccco1)N1C2CCC1Cn1c(nc3ccccc3c1=O)C2 (centres unmarked) [CBK284452]
viability at 28.5 h, 10 µM (%): 89.1
//
MOLECULE: O=S(=O)(c1ccc(F)cc1)N1CCCC1c1cccc(Cc2ccccc2)n1 (centres unmarked) [CBK286231]
viability at 28.5 h, 10 µM (%): 97.3
//
MOLECULE: O=C(c1cccnc1)C1CCN(C(=O)c2cc(F)cc(F)c2)CC1 [CBK283746]
viability at 28.5 h, 10 µM (%): 102
//
MOLECULE: O=C(O)CSc1nnc(-c2ccc(S(=O)(=O)N3CCCCCC3)cc2)o1 [CBK300508]
viability at 28.5 h, 10 µM (%): 81.9
//
MOLECULE: Cc1cc(C)cc(N(C(C)C(=O)Nc2ccc(C(F)(F)F)cc2)S(C)(=O)=O)c1 (centres unmarked) [CBK268834]
viability at 28.5 h, 10 µM (%): 89.6
//
MOLECULE: N#CCCN(C1CCCCC1)S(=O)(=O)c1cccc2nsnc12 [CBK009093]
viability at 28.5 h, 10 µM (%): 94
//
MOLECULE: Cc1csc2ncc(C(=O)Nc3ccccc3C#N)c(=O)n12 [CBK287458]
viability at 28.5 h, 10 µM (%): 95.3
//
MOLECULE: O=C(C1CCCCC1)N1CC[C@H](c2nnc(-c3cccnc3)o2)C1 [CBK289412]
viability at 28.5 h, 10 µM (%): 103
//
MOLECULE: CC1CN(Cc2cccc(CNc3ncccc3C#N)c2)CCO1 (centres unmarked) [CBK303994]
viability at 28.5 h, 10 µM (%): 95.7
//
MOLECULE: C=CCn1c2ccccc2c2nnc(SC(CC)C(=O)N3c4ccccc4Sc4ccccc43)nc21 (centres unmarked) [CBK263040]
viability at 28.5 h, 10 µM (%): 90.7
//
MOLECULE: COc1ccc(-c2cnc(N)c(-c3ccc(C(=O)NCCO)cc3)n2)cn1 [CBK064147]
viability at 28.5 h, 10 µM (%): 95.6
//
MOLECULE: CN1CCC(N(C)Cc2ccccc2[N+](=O)[O-])CC1 [CBK261565]
viability at 28.5 h, 10 µM (%): 93.8
//
MOLECULE: CCC(=O)Nc1nc(-c2ccco2)c(-c2ccncc2)s1 [CBK284495]
viability at 28.5 h, 10 µM (%): 101
//
MOLECULE: O=C(NC1CCCCC1)N1CC[C@H](c2nc3ccccc3o2)C1 [CBK289372]
viability at 28.5 h, 10 µM (%): 88.4
//
MOLECULE: O=C(Nc1cncc(OC2CCNCC2)n1)c1ccoc1 [CBK036366T]
viability at 28.5 h, 10 µM (%): 92
//
MOLECULE: O=S(=O)(Nc1cccc(C(F)(F)F)c1)c1cc2c(N3CCNCC3)nccc2s1 [CBK039085C]
viability at 28.5 h, 10 µM (%): 103
//
MOLECULE: CN(C(=O)c1ccc(-n2nncc2-c2ccccc2)cc1)c1ccccc1 [CBK288107]
viability at 28.5 h, 10 µM (%): 108
//
MOLECULE: Cc1cccc(N(CC(O)CN2C(=O)NC(C)(C)C2=O)S(=O)(=O)c2ccccc2)c1 (centres unmarked) [CBK263582]
viability at 28.5 h, 10 µM (%): 103
//
MOLECULE: COc1cccc(CNc2nccnc2-c2cccs2)c1OC [CBK036784]
viability at 28.5 h, 10 µM (%): 95.7
//
MOLECULE: COCOc1ccc(-c2nc(-c3cccnc3)cnc2N)cc1 [CBK063999]
viability at 28.5 h, 10 µM (%): 93.6
//
MOLECULE: CS(=O)(=O)N1CCC2(CC1)Cn1c(cc3ccccc31)C(=O)O2 [CBK282820]
viability at 28.5 h, 10 µM (%): 87.1
//
MOLECULE: O=C(O)c1ccc(C2(c3ccc(C(=O)O)cc3)OC(=O)c3ccccc32)cc1 [CBK261150]
viability at 28.5 h, 10 µM (%): 98.2
//
MOLECULE: CC(=O)N1CCC(C(=O)NC(c2ccc3c(c2)OCO3)c2cccs2)CC1 (centres unmarked) [CBK059881]
viability at 28.5 h, 10 µM (%): 101
//
MOLECULE: OC(CN1CCC(O)(c2ccc(F)cc2)CC1)c1ccc(F)cc1 (centres unmarked) [CBK282510]
viability at 28.5 h, 10 µM (%): 79
//
MOLECULE: CC(C)(C)OC(=O)N1CCC(CNS(C)(=O)=O)CC1 [CBK003925]
viability at 28.5 h, 10 µM (%): 78
//
MOLECULE: Cc1ncccc1C(=O)NC(CC(C)C)c1nnc2n1CCNCC2 (centres unmarked) [CBK307348]
viability at 28.5 h, 10 µM (%): 80.5
//
MOLECULE: Cc1ccc(C2(C(=O)NCCn3ccnc3C)CCOCC2)cc1 [CBK281858]
viability at 28.5 h, 10 µM (%): 95
//
MOLECULE: CC1CCC(N2CCN(Cc3ccccn3)CC2)CC1 (centres unmarked) [CBK263473]
viability at 28.5 h, 10 µM (%): 90.6

---

Quick reference for viability at 28.5 h, 10 µM among some compounds
assay: in vitro; settings: human, hela cells, % viability

COMPOUND: CC(C)NC(=O)N1CCN2C(=O)N(c3ccccc3)C(=O)[C@@H]2C1
READOUT UNIT: %
viability at 28.5 h, 10 µM: 99.4
--
COMPOUND: NNC(=O)CNC(c1cc(Br)ccc1N)c1ccccc1Cl (stereo not drawn)
READOUT UNIT: %
viability at 28.5 h, 10 µM: 87.1
--
COMPOUND: CNC(=O)NC(=O)C1CCN(CCc2ccccc2)CC1
READOUT UNIT: %
viability at 28.5 h, 10 µM: 106

---

test: in vitro; conditions: human, hela cells, % viability

COMPOUND: O=c1cc(N2CCN(CC3(O)CCNC3)CC2)c(-c2ccccc2)n[nH]1 (stereo not shown) [CBK307088]
viability at 28.5 h, 10 µM (%): 107
//
COMPOUND: NCCCNc1ncc(C(=O)NCc2ccccc2)c(NCC2CCCCC2)n1 [CBK215386]
viability at 28.5 h, 10 µM (%): 103
//
COMPOUND: Cc1cnc(C(=O)OCc2cc(=O)n3ccsc3n2)cn1 [CBK296978]
viability at 28.5 h, 10 µM (%): 95.5
//
COMPOUND: N#Cc1sc2nc(-c3ccncc3)ccc2c1N [CBK288547]
viability at 28.5 h, 10 µM (%): 78.3
//
COMPOUND: CC1=CC(C)(NC(N)=O)NC(=S)N1 (stereo not shown) [CBK020817]
viability at 28.5 h, 10 µM (%): 112
//
COMPOUND: COC(=O)CCC(=O)N1CCCC2(CCN(C(=O)c3ccoc3)C2)C1 (stereo not shown) [CBK160988]
viability at 28.5 h, 10 µM (%): 100
//
COMPOUND: Cc1ccc(S(=O)(=O)OC[C@H]2O[C@@H](n3cc(C)c(=O)[nH]c3=O)C[C@H]2O)cc1 [CBK201165]
viability at 28.5 h, 10 µM (%): 88.1
//
COMPOUND: O=C(CN1CCN(S(=O)(=O)c2ccc(F)cc2)CC1)Nc1cccc(C(F)(F)F)c1 [CBK071925]
viability at 28.5 h, 10 µM (%): 92.7
//
COMPOUND: CCOc1nc(Nc2nc(-c3ccccc3)cs2)nc(OCC)n1 [CBK262442]
viability at 28.5 h, 10 µM (%): 98.1
//
COMPOUND: COc1ccc(CC(=O)NNC(=O)c2ccc(C(C)(C)C)cc2)cc1 [CBK261700]
viability at 28.5 h, 10 µM (%): 92.5

Provenance of the data: paper PMC12040169
